Tested on: RSK1(Kin.Dom.2-C-terminal)
Construct: gene RPS6KA1
conditionsUsed: concentration: 1 μM,replicates: in singlicate; n = 1;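 note: KINOMEscan kinase panel screen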
observedProperty: %Inh (%)
Record the value in %, omitting the unit from your answer.

- compound: "COc1cc(Nc2nccc(N3CCC(NC(=O)c4cccc(C#N)c4)C3)n2)cc(OC)c1OC (stereo not shown)"
  observedProperty: "%Inh"
  recordedNumber: 0
- compound: "O=C(Nc1n[nH]c2cc(-c3ccco3)ccc12)C1CC1"
  observedProperty: "%Inh"
  recordedNumber: 0
- compound: "Cn1ccc2ncnc(Oc3ccc(NC(=O)Nc4ccnc(C(F)(F)F)c4)c(Cl)c3)c21"
  observedProperty: "%Inh"
  recordedNumber: 9

API: the following record is the query input.
Given the entry O=C(Nc1ccc(Oc2ccc3nc(NC(=O)C4CC4)cn3n2)c(F)c1)c1cccn(-c2ccccc2)c1=O , report its measured %Inh.
0

====

Tested on: EPHB2
conditionsUsed: concentration: 1 μM,replicates: in singlicate; n = 1
Catalogue of %Inh readings, one per entry.
Record the value in %, omitting the unit from your answer.

Given the entry O=C(Nc1cccc(Oc2ccc3nccn3n2)c1)Nc1cccc(C(F)(F)F)c1 , report its measured %Inh.
39

====

Tested on: TSSK1B
conditionsUsed: concentration: 1 μM,replicates: in singlicate; n = 1
Catalogue of %Inh readings, one per entry.
Record the value in %, omitting the unit from your answer.

Worked set:
- molecule: "CN(c1ccccc1CNc1nc(Nc2ccc3c(c2)CC(=O)N3)ncc1C(F)(F)F)S(C)(=O)=O"
  %Inh, %: 12
- molecule: "CN1CCN(CCCNc2nccc(-c3c(-c4ccc(F)cc4)nn4cc(C(N)=O)ccc34)n2)CC1 [GW622475]"
  %Inh, %: 18
- molecule: "CS(=O)c1ccc(-c2coc3ccc(-c4n[nH]c(=O)o4)cc23)cc1 (stereo not shown)"
  %Inh, %: 0

API: the following record is the query input.
Item CC(=O)Nc1nc2cnc(Nc3cc(NC(=O)c4cccc(CC(C)(C)C#N)c4)ccc3C)nc2s1 with TSSK1B - %Inh?
19

====

Test system: FAK
Construct: gene PTK2
conditionsUsed: concentration: 1 μM,replicates: in singlicate; n = 1
Catalogue of %Inh readings, one per entry.
Record the value in %, omitting the unit from your answer.

Worked set:
- compound: "CN1CCN(CCNc2nc3cc(Oc4ccc(NC(=O)Nc5cc(C(F)(F)F)ccc5F)cc4)ccc3[nH]2)CC1.Cl.Cl [GW768504]"
  %Inh (%): 11
- compound: "O=C(Nc1ccccc1)c1cccc(Oc2ccc3nccn3n2)c1"
  %Inh (%): 0
- compound: "COc1cc2c(Nc3ccc(NC(=O)c4ccccc4)cc3)ncnc2cc1OCCCN1CCOCC1 [GSK301329]"
  %Inh (%): 0
- compound: "COC(=O)c1cccc(NC(=O)NC2CCN(c3ccnc(NCc4ccc(F)cc4)n3)CC2)c1 [GSK1379860]"
  %Inh (%): 0
- compound: "CC(C)S(=O)(=O)N1CCN(Cc2ccc3c(c2)nc(NC(=O)c2ccsc2)n3C[C@H](O)c2ccccc2)CC1 [GW635815]"
  %Inh (%): 29

Given the entry O=C(NOCC1CC1)c1cc(Br)c(F)c(F)c1Nc1ccc(I)cc1Cl , report its measured %Inh.
0

Given the entry C[C@@H]1CNc2c(sc3ccc4nc(-c5ccncc5)ccc4c23)C(=O)N1 , report its measured %Inh.
0

Given the entry NC(=O)Nc1sc(-c2ccc(F)cc2)cc1C(N)=O [GW789449] , report its measured %Inh.
5

Given the entry CC(C(=O)NC1CCN(c2ccnc(Nc3ccc(F)cc3)n2)C1)c1ccc(Cl)cc1 (centres unmarked) [GSK1379713] , report its measured %Inh.
0

Given the entry O=C(Nc1cccc(Oc2ccc3nccn3n2)c1)Nc1cccc(C(F)(F)F)c1 , report its measured %Inh.
2

Given the entry OCCn1cc(-c2cnc3nnn(Cc4ccc5ncccc5c4)c3n2)cn1 , report its measured %Inh.
0

Given the entry C[C@@H](Oc1cc(-n2cnc3cc(-c4cnn(C)c4)ccc32)sc1C(N)=O)c1ccccc1Cl [GSK580432] , report its measured %Inh.
0

====

Tested on: WEE2
conditionsUsed: concentration: 1 μM,replicates: in singlicate; n = 1
Threshold 7%. %Inh below it: condition met. %Inh at it or above: condition not met.

- compound: "Cc1ccc(C(=O)Nc2ccc(Oc3ccc4nc(NC(=O)C5CC5)cn4c3)c(F)c2)c(=O)n1-c1ccccc1"
  classAssignment: "condition met"
- compound: "CCn1c(-c2nonc2N)nc2cncc(Br)c21"
  classAssignment: "condition met"
- compound: "Cn1ccc2ncnc(Oc3ccc(NC(=O)Nc4cccc(C(F)(F)F)c4)c(Cl)c3)c21"
  classAssignment: "condition not met"
- compound: "COc1cccc(OC)c1C(=O)Nc1cccc(-c2nn3ccccc3c2-c2ccnc(Nc3cccc(F)c3)n2)c1"
  classAssignment: "condition not met"
- compound: "C[C@@H]1CCN(C(=O)N2CCCC2)C[C@@H]1N(C)c1ncnc2[nH]ccc12"
  classAssignment: "condition met"
- compound: "O=C(Nc1ccccc1)c1cccc(Oc2ccc3nccn3n2)c1"
  classAssignment: "condition met"

Is the reported %Inh for CC(=O)Nc1nc2cnc(Nc3cc(NC(=O)c4cccc(CC(C)(C)C#N)c4)ccc3C)nc2s1 strictly below 7%?
condition not met

Is the reported %Inh for C[C@@H](Oc1cc(-n2cnc3ccc(-c4ccncc4)cc32)sc1C(N)=O)c1ccccc1Cl strictly below 7%?
condition met

Is the reported %Inh for Cc1n[nH]c2cc(Nc3ccnc(Nc4cccc(CN5CCOCC5)c4)n3)ccc12 strictly below 7%?
condition met

Is the reported %Inh for O=C(NCC1CC1)c1ccc(-c2cc(C(=O)NC3CC3)ccc2F)cc1 strictly below 7%?
condition met

Is the reported %Inh for OCCn1cc(-c2cnc3nnn(Cc4ccc5ncccc5c4)c3n2)cn1 strictly below 7%?
condition met

====

Catalogue of %Inh readings, one per entry.
Tested on: RSK3(Kin.Dom.2-C-terminal)
Construct: gene RPS6KA2
conditionsUsed: concentration: 1 μM,replicates: in singlicate; n = 1
Record the value in %, omitting the unit from your answer.

Worked set:
- compound: "CCNCC(Cc1ccccc1)NC(=O)c1cc(Br)c(-c2ccnc3[nH]ccc23)s1.Cl.Cl (stereo not drawn)"
  %Inh / %: 1
- compound: "O=C(NOCC1CC1)c1cc(Br)c(F)c(F)c1Nc1ccc(I)cc1Cl"
  %Inh / %: 33
- compound: "Cc1ccc(CC(=O)N2CCc3cc(-c4cn(C)c5ncnc(N)c45)ccc32)cc1"
  %Inh / %: 0

Item CCOC(=O)N1CCC(n2cnc(-c3ccc(F)cc3)c2-c2ccnc(N)n2)CC1 with RSK3(Kin.Dom.2-C-terminal) - %Inh?
36

Item Cn1ccc2ncnc(Oc3ccc(NC(=O)Nc4cccc(C(F)(F)F)c4)c(Cl)c3)c21 with RSK3(Kin.Dom.2-C-terminal) - %Inh?
27

Item c1ccc(Oc2ccc(Nc3ccnc4ccc(-c5ccccn5)cc34)cc2)cc1 with RSK3(Kin.Dom.2-C-terminal) - %Inh?
0

Item Cn1ccc2ncnc(Oc3ccc(NC(=O)Nc4cncc(C(F)(F)F)c4)c(Cl)c3)c21 with RSK3(Kin.Dom.2-C-terminal) - %Inh?
0

Item CC(C(=O)NC1CCN(c2ccnc(Nc3ccc(F)cc3)n2)C1)c1ccc(Cl)cc1 (stereo not drawn) with RSK3(Kin.Dom.2-C-terminal) - %Inh?
0

Item O=C(Nc1cccc(Oc2ccc3nccn3n2)c1)Nc1cccc(C(F)(F)F)c1 with RSK3(Kin.Dom.2-C-terminal) - %Inh?
0

Item Cc1ccc2c(-c3ccnc(Nc4ccc(C(F)(F)F)cc4)n3)cnn2n1 with RSK3(Kin.Dom.2-C-terminal) - %Inh?
7

Item Cn1ccc2ncnc(Oc3ccc(NC(=O)Nc4cc(C(C)(C)C)on4)c(Cl)c3)c21 with RSK3(Kin.Dom.2-C-terminal) - %Inh?
8

Item COc1cccc(C2=C(Nc3cccc(Cl)c3)C(=O)NC2=O)c1 with RSK3(Kin.Dom.2-C-terminal) - %Inh?
0

====

Tested on: MAP4K4
conditionsUsed: concentration: 1 μM,replicates: in singlicate; n = 1
observedProperty: %Inh (%)
Record the value in %, omitting the unit from your answer.

Worked set:
- molecule: "CS(=O)(=O)c1cccc(CNc2nc(Nc3ccc4c(c3)[C@@H]3C[C@@H]4CNC3=O)ncc2C(F)(F)F)c1"
  %Inh [%]: 40
- molecule: "N#Cc1cccc(C(=O)NC2CCN(c3ccnc(Nc4ccc(F)cc4)n3)C2)c1 (stereo not drawn)"
  %Inh [%]: 7
- molecule: "O=c1[nH]cc(-c2ccc(O)cc2)c2sc(-c3ccncc3)cc12"
  %Inh [%]: 0
- molecule: "CC(=O)c1c(-c2ccncc2)[nH]c(-c2ccncc2)c1C"
  %Inh [%]: 16
- molecule: "CCCC(=O)Nc1n[nH]c2ncccc12"
  %Inh [%]: 0

Item CC(C(=O)NC1CCN(c2ccnc(Nc3ccc(F)cc3)n2)C1)c1ccc(Cl)cc1 (stereo not drawn) with MAP4K4 - %Inh?
12

Item C[C@@H]1CNc2c(sc3ccc4nc(-c5ccc(O)cc5)ccc4c23)C(=O)N1 with MAP4K4 - %Inh?
26

Item Cc1cccc2c(-c3ccncc3)c(-c3ccc(F)cc3)nn12.Cl with MAP4K4 - %Inh?
9

Item COc1cc2ncn(-c3cc(OCC4CCCCC4)c(C(N)=O)s3)c2cc1OC with MAP4K4 - %Inh?
35
